All values here come from the supplement of paper PMC10126150.

System: ATP;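 also: ATP exposure 15 min at 22 °C before imaging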
Assay: switch fluorescence ratio, 500 uM ATP over buffer (Cy3 cluster intensity, sum of 5 cycles each) (fold (ratio)); higher = stronger signal-on switching upon ATP binding; sequences stand for … in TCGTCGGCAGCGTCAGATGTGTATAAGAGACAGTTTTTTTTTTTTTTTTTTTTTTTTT…TC
Conditions: aptamer strand: ATP DNA aptamer (quencher-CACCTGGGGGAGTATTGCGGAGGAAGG + anchor), 100 nM annealed; ATP concentration: 500 uM
Experimental Readout: switch fluorescence ratio
Please respond with just the number, no unit label.

*Q* # return recorded switch fluorescence ratio for input TGCTGGGGGA
*A* 1.01

*Q* Specify measured switch fluorescence ratio for CACCTGTTTT .
*A* 1.02

*Q* For the sequence TAGGCTGAAA , give its reported switch fluorescence ratio.
*A* 0.991

*Q* Please report switch fluorescence ratio for the following sequence: CTGGAATAGC
*A* 2.21

*Q* Look up and state reported switch fluorescence ratio for TGTTCCGGAC
*A* 1.02

*Q* Recall and state the measured switch fluorescence ratio for GGCTGGGGGA .
*A* 1.01

*Q* Return the recorded switch fluorescence ratio value; entry: GAGGGTTGCT
*A* 1.01

*Q* Fill in reported switch fluorescence ratio for this entry: TGGGTTTTAG
*A* 0.977

*Q* Return switch fluorescence ratio (reported value) for this sequence: GGGGGAATAT
*A* 1.13

*Q* Supply reported switch fluorescence ratio belonging to this sequence: CTGACTGCAG
*A* 1.01

*Q* Name the recorded switch fluorescence ratio of the item GAGGGAGTGG in your answer.
*A* 1.01

*Q* Specify reported switch fluorescence ratio for the sequence shown: TCGTAATAGG
*A* 1.12

*Q* Return value of switch fluorescence ratio for input GCGATAAACC , no commentary.
*A* 1.19

*Q* Retrieve switch fluorescence ratio measured for GGAGATTTTG and print it.
*A* 1

*Q* Respond only with switch fluorescence ratio recorded for TCGAGGGGAT
*A* 1.01

*Q* Specify reported switch fluorescence ratio for the sequence shown: ATTAGTTTTG
*A* 0.99

*Q* Fill in reported switch fluorescence ratio for this entry: AGACAATTAG
*A* 1.01

*Q* State its switch fluorescence ratio for this sequence: CTGAAAGGGA
*A* 1.01

*Q* Could you please provide reported switch fluorescence ratio for CTTGATACAG ? Thanks!
*A* 1.04

*Q* Give the measured switch fluorescence ratio for CGGGTGCAAG
*A* 1.03

*Q* Specify measured switch fluorescence ratio for CCGGCGTGGC .
*A* 1.36

*Q* Annotate the sequence CGGATGTTAT with its measured switch fluorescence ratio.
*A* 0.963

*Q* Item CGGGTATTCG : provide switch fluorescence ratio
*A* 0.99

*Q* Output measured switch fluorescence ratio for this item: AAAGTGTAAA
*A* 1.08

*Q* For GGGATTTATG , write its switch fluorescence ratio.
*A* 1.01

*Q* Let me know recorded switch fluorescence ratio for ATTCTTTGGT , thanks.
*A* 0.979

*Q* Specify switch fluorescence ratio for TAAAGGGGAG and stop.
*A* 1.01

*Q* Report measured switch fluorescence ratio; entry is TGGGAAGTGG
*A* 1.04

*Q* Respond only with switch fluorescence ratio recorded for TTACAAGCGA
*A* 1.03

*Q* Annotate the sequence AAAAAAGGGT with its measured switch fluorescence ratio.
*A* 1.02

*Q* Give recorded switch fluorescence ratio. GGTCTGGTGC
*A* 1.03

*Q* Query switch fluorescence ratio for ATTGTCTAGC
*A* 0.999

*Q* Identify the reported switch fluorescence ratio for the following entry. AAGGGCGGC
*A* 1.03

*Q* Read off the recorded switch fluorescence ratio for TGCAGGAATT
*A* 1.09

*Q* Answer with the recorded switch fluorescence ratio of AGTTAGCAGA only.
*A* 0.995

*Q* For the sequence GATGGGTTCT , give its measured switch fluorescence ratio value.
*A* 0.993

*Q* Return value of switch fluorescence ratio for input CATAAAACGG , no commentary.
*A* 1.03

*Q* Read off the recorded switch fluorescence ratio for TTTGGCTTAC
*A* 1.55

*Q* Indicate its recorded switch fluorescence ratio; the sequence in question is CTGTAATTGT
*A* 0.988

*Q* Give the reported switch fluorescence ratio for this sequence. TTAGGGGTTT
*A* 0.997

*Q* Complete the entry with switch fluorescence ratio for ATCGGGGCGG
*A* 0.993

*Q* Answer with the recorded switch fluorescence ratio for the sequence listed here: GGAGGAGAGC
*A* 0.994

*Q* # return recorded switch fluorescence ratio for input TTTAACTAGC
*A* 1.03

###

Test system: ATP;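 also: ATP exposure 15 min at 22 °C before imaging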
Assay: switch fluorescence ratio, 500 uM ATP over buffer (Cy3 cluster intensity, sum of 5 cycles each) (fold (ratio)); higher = stronger signal-on switching upon ATP binding; sequences stand for … in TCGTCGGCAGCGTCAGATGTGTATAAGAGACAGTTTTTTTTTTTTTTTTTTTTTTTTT…TC
Conditions: aptamer strand: ATP DNA aptamer (quencher-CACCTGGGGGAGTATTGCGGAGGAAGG + anchor), 100 nM annealed; ATP concentration: 500 uM
Experimental Readout: switch fluorescence ratio
API doc: respond with a numeric literal and nothing else, no unit.

*Q* # return recorded switch fluorescence ratio for input GGGACGTGTG
*A* 1.01

*Q* Tell me its switch fluorescence ratio given GGGGGTGGCT as the entry.
*A* 1.03

*Q* Quick one: give measured switch fluorescence ratio for ACATCCTACT
*A* 1.15

*Q* Provide one value: measured switch fluorescence ratio of GTATAGGGGC
*A* 0.977

*Q* Report measured switch fluorescence ratio; entry is TAGAGGGGAT
*A* 0.985

*Q* Find the measured switch fluorescence ratio of GGGAATCGGC and report it.
*A* 1

*Q* Quote switch fluorescence ratio reported for GGCTATCAAA please.
*A* 1.01

*Q* Read off the recorded switch fluorescence ratio for TGGTTTGGTG
*A* 0.985

*Q* Please report switch fluorescence ratio for the following sequence: TGGCGGGGGA
*A* 1.05

*Q* Using known records, supply switch fluorescence ratio for TACGATGCTT
*A* 1.2

*Q* Could you please provide reported switch fluorescence ratio for TAAAAGAGGA ? Thanks!
*A* 0.997

*Q* Fill in switch fluorescence ratio for record AGATGGCTAG
*A* 0.999

###

System: ATP;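 also: ATP exposure 15 min at 22 °C before imaging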
Experiment: switch fluorescence ratio, 500 uM ATP over buffer (Cy3 cluster intensity, sum of 5 cycles each) (fold (ratio)); higher = stronger signal-on switching upon ATP binding; sequences stand for … in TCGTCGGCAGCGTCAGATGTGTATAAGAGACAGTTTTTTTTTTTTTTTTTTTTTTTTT…TC
Conditions: aptamer strand: ATP DNA aptamer (quencher-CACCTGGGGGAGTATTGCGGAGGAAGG + anchor), 100 nM annealed; ATP concentration: 500 uM
I'd be grateful if you could share measured switch fluorescence ratio for these entries.

*Q* Give the observed switch fluorescence ratio of TATATGCACT for ATP.
*A* 1.07

*Q* Fill: switch fluorescence ratio (ATP) for this sequence GGATGGGGCC
*A* 0.995

*Q* Provide switch fluorescence ratio, tested on ATP, for AGTATAGAAA .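 Also: ATP exposure 15 min at 22 °C before imaging.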
*A* 0.978

*Q* Give measured switch fluorescence ratio for TTTCGTTAAC (ATP).
*A* 1.06

*Q* Fill: switch fluorescence ratio (ATP) for this sequence ATGGTGCGGG
*A* 1.02

*Q* With ATP as the test system, provide measured switch fluorescence ratio for this sequence: TTTATGAGTT
*A* 0.988

*Q* Enter recorded switch fluorescence ratio with ATP for TCGAACTAGG here.
*A* 1

*Q* Param request: switch fluorescence ratio | system ATP | item CGGGTCTAAA;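 also: ATP exposure 15 min at 22 °C before imaging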
*A* 0.997

*Q* Find switch fluorescence ratio for TTTTTCAGGA on ATP and write it down.
*A* 0.975

*Q* For ATP, give switch fluorescence ratio of the listed sequence: TATTTGAGCA
*A* 0.995

*Q* Report value: switch fluorescence ratio, system: ATP, sequence: TGTTAGGGAG;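 also: ATP exposure 15 min at 22 °C before imaging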
*A* 0.987

*Q* Given GGTGGGGCGC , report its switch fluorescence ratio on ATP.
*A* 1.01

*Q* # lookup: ATP switch fluorescence ratio, key = CGTTCGATGC
*A* 1.21

*Q* Identify measured switch fluorescence ratio obtained with ATP for ATAATAGGG .
*A* 0.977

*Q* Give switch fluorescence ratio for TACGCGGGGT tested on ATP.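 Also: ATP exposure 15 min at 22 °C before imaging.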
*A* 1.29

*Q* Look up and report switch fluorescence ratio, with ATP as system, for CGTTTTTGAA
*A* 0.99

*Q* Report the value of switch fluorescence ratio obtained on ATP for GTAAGTGAGC .
*A* 1.03

*Q* Fill in: switch fluorescence ratio on ATP, entry ATGTAGGGGC
*A* 1.03

*Q* Find the measured switch fluorescence ratio of AGGGCAAGTT with ATP as test system.
*A* 1.01

*Q* Please report the measured switch fluorescence ratio for AAGAGGGTTC tested on ATP.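 Also: ATP exposure 15 min at 22 °C before imaging.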
*A* 1.02

*Q* Check ATP data and give switch fluorescence ratio for GCTCGTACGT .
*A* 1.01

*Q* Consider the sequence ATGGAACGGA tested on ATP; state its switch fluorescence ratio.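 Also: ATP exposure 15 min at 22 °C before imaging.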
*A* 1.03

*Q* Provide switch fluorescence ratio, tested on ATP, for AAATATTGAG .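 Also: ATP exposure 15 min at 22 °C before imaging.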
*A* 1

*Q* Give switch fluorescence ratio only, for TTCTGCGTAT , using ATP data.
*A* 1.01

*Q* Report value only: switch fluorescence ratio, ATP, AAATTGTTTG
*A* 0.989

*Q* Please report switch fluorescence ratio with ATP for item ATATGATGTG .
*A* 1.01

*Q* Report switch fluorescence ratio under test system ATP for GAGTTAGTTG .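 Also: ATP exposure 15 min at 22 °C before imaging.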
*A* 0.987

*Q* State measured switch fluorescence ratio of the sequence TCGAAGGGT with ATP.
*A* 1

*Q* Report its switch fluorescence ratio with ATP as the test system: TTTAGAACTC
*A* 1.19

*Q* Report its switch fluorescence ratio with ATP as the test system: GAGGTTGTCA
*A* 0.958

*Q* // fetch switch fluorescence ratio for AGGGTGACGG ; system: ATP;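 also: ATP exposure 15 min at 22 °C before imaging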
*A* 1.02

*Q* Name the recorded switch fluorescence ratio of AAGCTTGAAG , assay system ATP.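 Also: ATP exposure 15 min at 22 °C before imaging.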
*A* 1.01

*Q* Name the recorded switch fluorescence ratio of ATAATTATA , assay system ATP.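 Also: ATP exposure 15 min at 22 °C before imaging.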
*A* 1.01

*Q* State recorded switch fluorescence ratio with ATP, entry TTCGGTTAGA , no comment.
*A* 1.02

*Q* // fetch switch fluorescence ratio for ACTTTGAAGC ; system: ATP;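 also: ATP exposure 15 min at 22 °C before imaging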
*A* 0.996

*Q* Report the value of switch fluorescence ratio obtained on ATP for ATGGTTTAA .
*A* 1

*Q* Report the value of switch fluorescence ratio obtained on ATP for AGGTAGGTGG .
*A* 1.01

*Q* Specify switch fluorescence ratio for TTCGGATGGG , system ATP.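 Also: ATP exposure 15 min at 22 °C before imaging.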
*A* 1
